# measured_on: hemoglobin in stool samples (Homo sapiens, UniProt P68871+P69905)
# Sequence (P69905 2-142 limits assumed): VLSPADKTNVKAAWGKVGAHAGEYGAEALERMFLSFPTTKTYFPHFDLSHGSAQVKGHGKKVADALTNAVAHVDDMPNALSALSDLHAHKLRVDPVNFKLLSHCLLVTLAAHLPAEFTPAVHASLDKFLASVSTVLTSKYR
# Sequence (P68871 2-147 limits assumed): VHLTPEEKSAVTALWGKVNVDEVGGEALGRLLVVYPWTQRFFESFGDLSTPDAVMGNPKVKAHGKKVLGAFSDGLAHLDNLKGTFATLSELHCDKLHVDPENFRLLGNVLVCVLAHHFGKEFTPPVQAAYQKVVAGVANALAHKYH
# run_description: 3-Day shipping simulation, hemoglobin % recovery by ELISA;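 note: stool samples put through shipping stress in a thermal cycler, hemoglobin quantified by ELISA before and after, stability given as post-stress % of the pre-stress level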
# Set-up: from tissue; host or cells: stool samples
# measurement_setup: additive concentration 20 mM
recorded_metric: Results

Entry CCC(=O)[O-].CCC(=O)[O-].[Ca+2] [Calcium Propionate] , Results reported as Calcium cation shows

Entry [Cl-].[Cl-].[Mg+2] [Magnesium Chloride] , Results reported as Magnesium Cation shows

Entry [Ca+2].[Cl-].[Cl-] [Calcium Chloride] , Results reported as Calcium cation shows

Entry O=S(=O)([O-])[O-].[Mg+2] [Magnesium Sulfate] , Results reported as Magnesium Cation shows

====

# measured_on: hemoglobin in stool samples (Homo sapiens, UniProt P68871+P69905)
# run_description: Accelerated shipping simulation (35C 16 hour challenge), hemoglobin % recovery by ELISA;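 note: stool hemoglobin measured by ELISA before and after thermal-cycler shipping stress, stability given as percent of pre-stress hemoglobin recovered afterwards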
# Design: from tissue; host or cells: stool samples
# measurement_setup: additive concentration 5 mM
recorded_metric: Results

Entry O=C([O-])CN(CCN(CC(=O)[O-])CC(=O)O)CC(=O)O.[Na+].[Na+] [EDTA: Disodium Salt] , Results reported as No Improvement

Entry C[N+](C)(C)[O-] [Trimethylamine N-oxide (TMANO)] , Results reported as No Improvement

Entry OC[C@H]1O[C@H](OC[C@H]2O[C@H](O[C@]3(CO)O[C@H](CO)[C@@H](O)[C@@H]3O)[C@H](O)[C@@H](O)[C@@H]2O)[C@H](O)[C@@H](O)[C@H]1O [Raffinose] , Results reported as No Improvement

Entry CC1=NCC[C@@H](C(=O)O)N1 [Ectoine] , Results reported as No Improvement

Could you now look at the following compound, please?
Entry NC(N)=O [Urea] , Results reported as No Improvement

Where these numbers come from: patent US20240402196A1
